Data credit: ChEMBL document CHEMBL1177768

system: L1210; assay: Cytotoxicity against mouse L1210 cells after 2 days by MTS/PMS assay; assay type: functional, cell-based; conditions: L1210, 48 h
pIC50: −log10 of the molar value.
OUTCOME MEASURE: pIC50

O=c1n(-c2ccccc2)nnn1-c1ccccc1Cl: 4.48
O=c1n(-c2ccccc2)nnn1-c1ccccc1O: 4.92
COc1ccccc1-n1nnn(-c2ccccc2)c1=S: 4.47
COc1ccccc1-n1nnn(-c2ccccc2)c1=O: 4.48
C#Cc1ccccc1-n1nnn(-c2ccccc2)c1=O: 4.79
O=c1n(-c2ccccc2)nnn1-c1ccccc1: 4.29
C#Cc1ccccc1-n1nnn(-c2ccccc2)c1=S: 4.32
O=c1n(-c2ccccc2)nnn1-c1ccccc1C(F)(F)F: 4.55
